Reference for the values: PubChem BioAssay AID777

SYSTEM UNDER TEST: Cytochrome P450 2C9 (Homo sapiens) (UniProt P11712)
Sequence (P11712 whole entry, looked up): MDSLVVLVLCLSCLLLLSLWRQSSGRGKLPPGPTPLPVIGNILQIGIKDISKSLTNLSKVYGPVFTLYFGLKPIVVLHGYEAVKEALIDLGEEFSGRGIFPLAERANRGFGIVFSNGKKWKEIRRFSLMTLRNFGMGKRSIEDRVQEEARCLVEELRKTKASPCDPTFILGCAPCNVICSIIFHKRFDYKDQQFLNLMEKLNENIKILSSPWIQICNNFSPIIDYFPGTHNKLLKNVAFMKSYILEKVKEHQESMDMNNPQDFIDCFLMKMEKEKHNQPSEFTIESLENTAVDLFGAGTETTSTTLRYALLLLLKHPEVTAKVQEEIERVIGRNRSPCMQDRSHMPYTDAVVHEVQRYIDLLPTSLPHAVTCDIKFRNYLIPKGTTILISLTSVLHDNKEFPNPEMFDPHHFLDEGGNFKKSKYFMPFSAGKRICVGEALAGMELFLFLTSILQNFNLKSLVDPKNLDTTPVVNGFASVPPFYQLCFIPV
TEST DETAILS: blockers of cytochrome P450 2C9 activity – biochemical, luminescence, ADME assay, primary screen (AID 777)
PARTICULARS: CYP2C9 Supersomes, luciferin-H conversion, at 5 µM
The whole screen tested about 96,000 compounds, of which about 19,000 (20%) were called active.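 The calls were made as follows: active = blocking of liver enzyme CYP2C9 beyond about 50% at 5 µM (limit read from the data); inactive = the rest.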 Not all results are given here.
Labels: active, inactive

>>> category("CCOC(=O)c1c(-c2ccccc2)oc2ccc(OC(=O)N(C)C)cc12")
"active"
>>> category("COC(=O)CN1C(=O)C2(C(C(=O)OC)=C(N)Oc3ccccc32)C2=C1CC(C)(C)CC2=O (centres undefined)")
"inactive"
>>> category("COc1ccccc1N=C1SCCCN1C")
"inactive"
>>> category("CN1C2C=C(N(C(=O)c3ccc(Cl)cc3)c3ccccc3)CC1CC2 (centres undefined)")
"inactive"
